src = paper doi:10.1101/2024.08.19.608619

Test system: SARS-CoV-2, isolate USA-WA1/2020
assayInfo: microbe, parasite or virus in culture
Assay type: cell-based
conditionDetails: HeLa-ACE2 SARS-CoV-2 antiviral effect without P-gp inhibitor; minimum measured response of dose series
Answer no if perc_min_measured is under 70%, and yes if it is 70% or more.

// below: answered compounds
# compound, labelClass
data = [
    ("CNCc1cc(-c2cc3c(N[C@@H](c4ccc5c(c4)S(=O)(=O)CCC5)C(C)C)ncnc3[nH]2)co1 [ASAP-0011176]", "no"),
    ("Cn1ncc(-c2cc3c(N[C@@H](c4ccc5c(n4)OCCO5)C(C)(C)C)ncnc3[nH]2)c1C#N [ASAP-0011221]", "no"),
    ("COc1ccc([C@H](Cc2nnn[nH]2)NC(=O)c2ncnc3[nH]ccc23)cc1 [ASAP-0015381]", "yes"),
    ("CNC(=O)c1c[nH]c2ncnc(N[C@H](c3ccc4c(c3)S(=O)(=O)CCC4)C(C)C)c12 (single isomer, unassigned) [ASAP-0011153]", "no"),
    ("CC(C)[C@H](Nc1ncnc2[nH]c(-c3cnn(C)c3C#N)cc12)c1ccc2c(n1)OCCO2 [ASAP-0010715]", "no"),
]

Task item: Record CNC(=O)c1cccc(-c2cc3c(N[C@@H](c4ccc5c(c4)S(=O)(=O)CCC5)C(C)C)ncnc3[nH]2)c1 [ASAP-0012344] ; criterion: perc_min_measured no lower than 70%. Met?
Reply: no

Task item: Record CC(C)[C@@H](Nc1ncnc2[nH]ccc12)c1ccc2c(c1)S(=O)(=O)CCC2 (single isomer, unassigned) [ASAP-0008676] ; criterion: perc_min_measured no lower than 70%. Met?
Reply: no

Task item: Record CNCc1cc(-c2cc3c(N[C@H](c4ccc5c(c4)S(=O)(=O)CCC5)C(C)C)ncnc3[nH]2)co1 (single isomer, unassigned) [ASAP-0011169] ; criterion: perc_min_measured no lower than 70%. Met?
Reply: no

* * *

Tested on: Vero 76
parameterMeasured: CC50

Task item: Quote CC50 reported for CNC(=O)c1c[nH]c2ncnc(N[C@H](c3ccc4c(c3)S(=O)(=O)CCC4)C(C)C)c12 (single isomer, unassigned) [ASAP-0011153] please.
Reply: > 32 µM

* * *

assayInfo: Hepatic microsomal stability, MLM
Type: in vitro ADME
conditionDetails: In vitro mouse liver microsomal stability
I'd be grateful if you could share measured clint for these entries.
One number for each entry, in µL/min/mg.

Okay, here is my list. What is clint for each of these?
1. CC(C)[C@@H](Nc1ncnc2[nH]c(-c3cnn(C)c3C#N)cc12)c1ccc2c(n1)OCCO2
2. CNC(=O)c1c[nH]c2ncnc(N[C@H](c3ccc4c(c3)S(=O)(=O)CCC4)C(C)C)c12 (single isomer, unassigned) [ASAP-0011153]
3. COc1ccc([C@H](Cc2nnn[nH]2)NC(=O)c2ncnc3[nH]ccc23)cc1
4. CNC(=O)c1cc2c(N[C@@H](c3ccc4c(c3)OCCO4)C(C)C)ncnc2[nH]1
5. CNC(=O)c1cc2c(N[C@@H](c3ccc4c(c3)NC(=O)CO4)C(C)C)ncnc2[nH]1 [ASAP-0008571]
6. CC(C)[C@@H](Nc1ncnc2[nH]c(-c3cnn(CC(N)=O)c3)cc12)c1ccc2c(c1)OCCO2

Reply:
1. 371.0
2. 770.0
3. 7.0
4. 55.0
5. 20.0
6. 41.0

Task item: Quote clint reported for `CC(C)[C@@H](Nc1ncnc2[nH]c(-c3ccc4cncn4c3)cc12)c1ccc2c(c1)S(=O)(=O)CCC2` please.
Reply: 170.0
